Assay: Toxicity liver stage against HepG2, at 10uM
Type: cell-based
Set-up: test concentration 10 uM, cell line HepG2-A16-CD81EGFP
Settings: human, HepG2-A16-CD81EGFP cells; read-out: INHIBITION
attribute measured: cytotoxicity at 10 µM (%)

compound | unit text | observed
OC(COCc1ccco1)CSc1nnc2ccccn12 (centres undefined) | % | 3.55
O=C(c1ccc(O)nc1)N1CCC(Nc2cccnn2)CC1 | % | -8.83
CCN1CC(O)CN(C(=O)c2ccc(SC)cc2)CC1=O (centres undefined) | % | 6.88
Cc1nc2c(cc1C(=O)Nc1ccccc1Cl)c(=O)n(C)c(=O)n2C | % | -5.06
Cc1cnn(C2CCCN(C(=O)CCc3nccs3)C2)c1 (centres undefined) | % | -4.49
O=C(c1cc(=O)[nH]c(=O)[nH]1)N1CCCCC1c1nc2cc(F)ccc2[nH]1 (centres undefined) | % | -9.64
Cc1ncccc1C(=O)Nc1cccc(Cn2ccccc2=O)c1 | % | 3.06
N#CC(NC(=O)CCC(=O)NC1CCCC1)c1ccc(F)cc1F (centres undefined) | % | 6.75
CC1CCN(C(=O)CSCc2noc(C(C)C)n2)CC1 | % | 1.4
CC(C)N(C)Cc1nnn2c1CN(Cc1cccnc1)CCC2 | % | 11.3
Cc1cccc2c1nc(COCC(=O)O)n2-c1ccc(N)nc1 | % | 1.77
CC(=O)N1CCC2(CC1)C(=O)N(c1cccnc1)c1ccc(F)cc12 | % | 10.6
O=C1CCC(C(=O)Nc2cnn(-c3ccccc3Br)c2)N1 (centres undefined) | % | 3.56
CC1(C)Cc2nc(C(C)(C)C)ncc2C(NC(=O)C2(N)CC2)C1 (centres undefined) | % | -2.49
CCCN(CCC)C(=O)CN(C)C1CCc2ccccc21 (centres undefined) | % | -6.63
Cc1ccc(CC(=O)N2CCN(CC(O)C(C)(C)C)CC2)cn1 (centres undefined) | % | -4.51
Cc1ccc(OCC(=O)Nc2cc(C(=O)O)cc(S(C)(=O)=O)c2)cc1C | % | -4.95
Cc1noc(C)c1CN1CC2(CCCCN2C)CC1=O (centres undefined) | % | 2.75
COC(=O)c1sc2cccc(F)c2c1CNC(=O)C1CC1 | % | -11.4
CS(=O)(=O)Cc1cc(F)ccc1NCc1nnsc1Cl | % | -12.2
CC(=O)N(Cc1ncc(C)o1)C1CCN(Cc2sc(C)nc2C)C1 (centres undefined) | % | -19.8
Cc1nc(O)cc(CCNc2nccc(CCC(F)(F)F)n2)n1 | % | -149
Cc1ccc(SCC2CNc3nc4ccccc4c(=O)n32)c(C)c1 (centres undefined) | % | 6.76
COc1cccc2c1OCC(CNC(=O)Cn1ccnc1C)C2 (centres undefined) | % | -150
